MEASUREMENT_NOTES: Stability in aqueous medium (dimethyl sulfoxide/Dulbecco's Modified Eagle Medium) by UV-Vis spectroscopy
Type: physicochemical
CONDITION_DESCRIPTION: 5% dimethyl sulfoxide/95% Dulbecco's Modified Eagle Medium; time 0.5 h; band 358-400 nm (λmax in column head)
QUANTITY_KIND: Relative variation of the maximum absorbance of the charge transfer bands (%)
// return numeric value only (unit: %, not printed)

### Prompt # query: Relative variation of the maximum absorbance of the charge transfer bands of entry CCC(=O)C1=C[CH]([Ru-]2([PH](c3ccccc3)(c3ccccc3)c3ccccc3)[n+]3ccccc3-c3cccc[n+]32)C=C1.O=S(=O)([O-])C(F)(F)F (stereo not drawn) [compound 8]
### Response −0.6

### Prompt # query: Relative variation of the maximum absorbance of the charge transfer bands of entry NNC(=O)C1=C[CH]([Ru-]2([PH](c3ccccc3)(c3ccccc3)c3ccccc3)[n+]3ccccc3-c3cccc[n+]32)C=C1.O=S(=O)([O-])C(F)(F)F (stereo not drawn) [compound 4]
### Response −0.7

### Prompt # query: Relative variation of the maximum absorbance of the charge transfer bands of entry COc1cc[n+]2c(c1)-c1cc(O)cc[n+]1[Ru-]2([CH]1C=CC=C1)[PH](c1ccccc1)(c1ccccc1)c1ccccc1.O=S(=O)([O-])C(F)(F)F (stereo not drawn) [compound 10]
### Response −0.7

----------
For each record, write down the corresponding Relative variation of the maximum absorbance of the π→π* transitions.
MEASUREMENT_NOTES: Stability in organic medium (dimethyl sulfoxide) by UV-Vis spectroscopy
Type: physicochemical
CONDITION_DESCRIPTION: time 24 h, band 289-300 nm (λmax in column head)
Provide a numeric answer, followed by its unit.

### Prompt # query: Relative variation of the maximum absorbance of the π→π* transitions of entry NNC(=O)C1=C[CH]([Ru-]2([PH](c3ccccc3)(c3ccccc3)c3ccccc3)[n+]3ccccc3-c3cccc[n+]32)C=C1.O=S(=O)([O-])C(F)(F)F (centres unmarked)
### Response −0.2%

### Prompt # query: Relative variation of the maximum absorbance of the π→π* transitions of entry CCC(=O)C1=C[CH]([Ru-]2([PH](c3ccccc3)(c3ccccc3)c3ccccc3)[n+]3ccccc3-c3cccc[n+]32)C=C1.O=S(=O)([O-])C(F)(F)F (centres unmarked)
### Response −0.2%

### Prompt # query: Relative variation of the maximum absorbance of the π→π* transitions of entry COc1cc[n+]2c(c1)-c1cc(O)cc[n+]1[Ru-]2([CH]1C=CC=C1)[PH](c1ccccc1)(c1ccccc1)c1ccccc1.O=S(=O)([O-])C(F)(F)F (centres unmarked)
### Response 3.3%

### Prompt # query: Relative variation of the maximum absorbance of the π→π* transitions of entry CC(=O)C1=C[CH]([Ru-]2([PH](c3ccccc3)(c3ccccc3)c3ccccc3)[n+]3ccccc3-c3cccc[n+]32)C=C1.O=S(=O)([O-])C(F)(F)F (centres unmarked)
### Response −1.9%

### Prompt # query: Relative variation of the maximum absorbance of the π→π* transitions of entry O=C(Cc1ccccc1)C1=C[CH]([Ru-]2([PH](c3ccccc3)(c3ccccc3)c3ccccc3)[n+]3ccccc3-c3cccc[n+]32)C=C1.O=S(=O)([O-])C(F)(F)F (centres unmarked)
### Response −0.1%

----------
System: SK-BR-3 (FGFR+)
MEASUREMENT_NOTES: MTT cytotoxicity assay
CONDITION_DESCRIPTION: read-out: Cytotoxic activity expressed as IC50; Table 6; SK-BR-3 (FGFR+); 48 h, 37° C.
QUANTITY_KIND: pIC50
In textbook form, pIC50 equals minus log to base ten of the concentration in mol/L.

### Prompt # query: pIC50 of entry NNC(=O)C1=C[CH]([Ru-]2([PH](c3ccccc3)(c3ccccc3)c3ccccc3)[n+]3ccccc3-c3cccc[n+]32)C=C1.O=S(=O)([O-])C(F)(F)F (stereo not shown)
### Response 5.12
